details: human;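 further: human cholestatic liver injury, shown by histopathology or by peak ALT or AST elevation over alkaline phosphatase ratio below 2, value counts indexed literature reports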
resultType: Hepatotoxicity (choleostasis)
Give the figure only, with no unit attached.

Completed entries (count: 8):
1) CC(C)NCC(O)COc1cccc2ccccc12 (centres undefined) [PROPRANOLOL]	3
2) C[C@@H](O)[C@H]1C(=O)N2C(C(=O)O)=C([C@H]3CCCO3)S[C@H]12 [FAROPENEM]	0
3) CC[C@H](c1ccc(O)cc1)[C@@H](CC)c1ccc(O)cc1 [HEXESTROL]	0
4) CC(C)/N=C/Nc1ccc(-c2c[nH]cn2)cc1 [MIFENTIDINE]	0
5) COc1ccccc1Oc1c(NS(=O)(=O)c2ccc(C(C)(C)C)cc2)nc(-c2ncccn2)nc1OCCO [BOSENTAN]	1
6) O=C(O)c1cccnc1Nc1cccc(C(F)(F)F)c1 [NIFLUMIC ACID]	1
7) CCCN1C[C@H](CSC)C[C@@H]2c3cccc4[nH]cc(c34)C[C@H]21 [PERGOLIDE]	0
8) O=C(COc1ccc(Cl)cc1)N1CCN(Cc2ccc3c(c2)OCO3)CC1 [FIPEXIDE]	0

Kindly consider the entry below.
What measured Hepatotoxicity (choleostasis) goes with CC(OC(=O)OC1CCCCC1)OC(=O)C1=C(CSc2nnnn2CCN(C)C)CS[C@@H]2[C@H](NC(=O)Cc3csc(N)n3)C(=O)N12 (some centres undefined) ?
0
